Tested on: ryegrass, Italian (italian ryegrass, Lolium multiflorum)
Assay: Test A postemergence application, visual injury rating 0-100
Type: in vivo
Settings: Postemergence, 16 g ai/ha, greenhouse 10 days; 0 no effect, 100 complete control
experimental.readout: Ryegrass, Italian plant response rating (0 to 100 scale)
Field format: numeric only.

For the compound C=CC1(C(=O)NC2COC(C(=O)OC)C2)CN(c2cc(F)cc(F)c2)C(=O)O1 (stereo not drawn) [Compound 170] , report Ryegrass, Italian plant response rating (0 to 100 scale).
0

For the compound CCOC(=O)C1C=CC(NC(=O)C2(C)CN(c3cccc(OC(F)(F)F)c3)C(=O)O2)C1 (stereo not drawn) [Compound 102] , report Ryegrass, Italian plant response rating (0 to 100 scale).
20

For the compound CC(C)COC(=O)C1=CCC(NC(=O)C2(C)CN(c3cc(Cl)cc(Cl)c3)C(=O)O2)C1 (stereo not drawn) [Compound 156] , report Ryegrass, Italian plant response rating (0 to 100 scale).
60

For the compound COC(=O)C1=CCC(NC(=O)C2(C)CN(c3cc(F)cc(Cl)c3)C(=O)O2)C1 (stereo not drawn) [Compound 140] , report Ryegrass, Italian plant response rating (0 to 100 scale).
60

For the compound COC(=O)C1=CCC(NC(=O)C2(C)CN(c3cc(Cl)cc(Cl)c3)C(=O)O2)C1 (stereo not drawn) [Compound 149] , report Ryegrass, Italian plant response rating (0 to 100 scale).
80

For the compound CC1(C(=O)NC2CC=C(C(=O)OCC(F)F)C2)CN(c2cc(Cl)cc(Cl)c2)C(=O)O1 (stereo not drawn) [Compound 154] , report Ryegrass, Italian plant response rating (0 to 100 scale).
60

For the compound C=CC1(C(=O)NC2CC(C(=O)OC)C2)CN(c2cc(F)cc(F)c2)C(=O)O1 (stereo not drawn) [Compound 175] , report Ryegrass, Italian plant response rating (0 to 100 scale).
70

For the compound CCOC(=O)C1=CCC(NC(=O)C2(C)CN(c3cc(F)cc(F)c3)C(=O)O2)C1 (stereo not drawn) [Compound 112] , report Ryegrass, Italian plant response rating (0 to 100 scale).
60

For the compound CC1(C(=O)NC2CC=C(C(=O)OCC(F)F)C2)CN(c2cc(F)cc(F)c2)C(=O)O1 (stereo not drawn) [Compound 152] , report Ryegrass, Italian plant response rating (0 to 100 scale).
70

----------
Tested on: green foxtail (Setaria viridis)
Experiment: Test A preemergence soil spray, visual injury rating 0-100
Type: in vivo
Conditions: 62 g ai/ha, 10 days, 0 = no effect, 100 = complete control
Threshold check on Foxtail, Green plant response rating (0-100): at or above 90 gives 1, strictly below gives 0.

Threshold query (Foxtail, Green plant response rating (0-100) >= 90) on CC(C)OC(=O)C1=CCC(NC(=O)C2(C)CN(c3cc(F)cc(F)c3)C(=O)O2)C1 (stereo not drawn) [Compound 100]
1

Threshold query (Foxtail, Green plant response rating (0-100) >= 90) on CSCCOC(=O)C1=CCC(NC(=O)C2(C)CN(c3cc(Cl)cc(Cl)c3)C(=O)O2)C1 (stereo not drawn) [Compound 146]
0

Threshold query (Foxtail, Green plant response rating (0-100) >= 90) on CC1(C(=O)NC2CC=C(C(=O)O)C2)CN(c2cc(F)cc(Cl)c2)C(=O)O1 (stereo not drawn) [Compound 159]
1

Threshold query (Foxtail, Green plant response rating (0-100) >= 90) on COC(=O)COC(=O)C1=CCC(NC(=O)C2(C)CN(c3cc(Cl)cc(Cl)c3)C(=O)O2)C1 (stereo not drawn) [Compound 109]
0

Threshold query (Foxtail, Green plant response rating (0-100) >= 90) on CC1(C(=O)NC2CC=C(C(=O)NS(=O)(=O)c3ccccc3)C2)CN(c2cc(F)cc(F)c2)C(=O)O1 (racemic) [Compound 104]
0

Threshold query (Foxtail, Green plant response rating (0-100) >= 90) on COC(=O)COC(=O)C1=CCC(NC(=O)C2(C)CN(c3cc(F)cc(F)c3)C(=O)O2)C1 (stereo not drawn) [Compound 107]
0

Threshold query (Foxtail, Green plant response rating (0-100) >= 90) on CC1(C(=O)NC2C=CC(C(=O)O)C2)CN(c2cc(Cl)c(F)c(Cl)c2)C(=O)O1 (stereo not drawn) [Compound 124]
0

Threshold query (Foxtail, Green plant response rating (0-100) >= 90) on CC(C)COC(=O)C1=CCC(NC(=O)C2(C)CN(c3cc(F)cc(Cl)c3)C(=O)O2)C1 (stereo not drawn) [Compound 143]
0

Threshold query (Foxtail, Green plant response rating (0-100) >= 90) on CC1(C(=O)NC2CC=C(C(=O)NS(C)(=O)=O)C2)CN(c2cc(F)cc(F)c2)C(=O)O1 (racemic) [Compound 103]
0
